Where do the numbers come from? From ChEMBL document CHEMBL1131172.

Recorded below: IC50, system UniProt Q920D2.
Sequence (Q920D2 whole entry): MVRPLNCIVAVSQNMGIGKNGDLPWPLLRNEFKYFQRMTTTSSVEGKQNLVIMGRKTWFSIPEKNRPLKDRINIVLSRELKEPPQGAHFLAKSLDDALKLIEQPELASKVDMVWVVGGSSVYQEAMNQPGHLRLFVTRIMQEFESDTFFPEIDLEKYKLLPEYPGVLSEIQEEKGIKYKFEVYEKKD
Answers are plain numbers, in nM.

Consider the following illustrative entries.
COc1cc(CNc2ccc3nc(N)nc(N)c3n2)cc(OC)c1OC | 1400
COc1ccc(Nc2ccc3nc(N)nc(N)c3n2)cc1 | 3800
COc1ccc(Sc2ccc3nc(N)nc(N)c3n2)cc1 | 75
COc1ccc(OC)c(N(C)c2ccc3nc(N)nc(N)c3n2)c1 | 4.2
Nc1nc(N)c2nc(Nc3ccc(Cl)cc3)ccc2n1 | 820
CN(c1ccc2nc(N)nc(N)c2n1)c1cccc2ccccc12 | 3300

List the reported IC50 of each molecule below.
1. Nc1nc(N)c2nc(Nc3ccc4ccccc4c3)ccc2n1
2. COc1ccccc1Sc1ccc2nc(N)nc(N)c2n1
3. COc1ccc(Nc2ccc3nc(N)nc(N)c3n2)cc1OC
4. COc1ccc(S(=O)(=O)c2ccc3nc(N)nc(N)c3n2)cc1OC
5. CN(c1ccccc1)c1ccc2nc(N)nc(N)c2n1

Return:
1. 2000
2. 230
3. 1100
4. 880
5. 1.3

Enquiry: I have this molecule here, `COc1ccccc1Nc1ccc2nc(N)nc(N)c2n1` , and I need its recorded IC50.
Return: 260

###

# Tested on: M14
# experiment-notes: inhibition of the growth of melanoma cancer (M14) cell line
# Format: functional
# run-conditions: Homo sapiens
value-kind: GI50

COc1ccc(OC)c(N(C)c2ccc3nc(N)nc(N)c3n2)c1 | < 10 nM
COc1ccc(N(C)c2ccc3nc(N)nc(N)c3n2)cc1OC | < 10 nM

Turning now to a further compound:
Enquiry: # query: GI50 of entry `CN(c1ccc2ccccc2c1)c1ccc2nc(N)nc(N)c2n1`
Return: < 10 nM
